test-name: Volume of distribution at steady state in dog at 10 mg/kg, po or 2 mg/kg, iv
Type: ADME, organism-based, Canis lupus familiaris
particulars: in vivo, read-out: Vdss
recorded-endpoint: Vd (L/kg)
Your answer should be a plain number; it is taken to be in L/kg.

[Q] What does the data say about its Vd? Entry: CCOc1c2c(c(OCC)c3ncccc13)CN(c1ccc(CS(=O)(=O)[N-]C(=O)Cc3ccccc3OC)cc1C)C2=O.[Na+]
[A] 0.1

---

test-name: Clearance in rhesus monkey at 4 mg/kg, po or 2 mg/kg, iv
Assay type: ADME, organism-based, Macaca mulatta
particulars: in vivo
recorded-endpoint: clearance (mL/min/kg)
Please state the figure in mL/min/kg; there is no need to write the unit.

[Q] Please report the recorded clearance for COc1cccc(OC)c1C1(C(=O)[N-]S(=O)(=O)Cc2ccc(N3Cc4c(c(OCC(F)(F)F)c5cccnc5c4OCC(F)(F)F)C3=O)c(C)c2)CC1.[Na+] .
[A] 2

---

assay-system: Prostaglandin E2 receptor EP4 subtype (Homo sapiens, UniProt P35408)
Sequence (P35408 whole entry): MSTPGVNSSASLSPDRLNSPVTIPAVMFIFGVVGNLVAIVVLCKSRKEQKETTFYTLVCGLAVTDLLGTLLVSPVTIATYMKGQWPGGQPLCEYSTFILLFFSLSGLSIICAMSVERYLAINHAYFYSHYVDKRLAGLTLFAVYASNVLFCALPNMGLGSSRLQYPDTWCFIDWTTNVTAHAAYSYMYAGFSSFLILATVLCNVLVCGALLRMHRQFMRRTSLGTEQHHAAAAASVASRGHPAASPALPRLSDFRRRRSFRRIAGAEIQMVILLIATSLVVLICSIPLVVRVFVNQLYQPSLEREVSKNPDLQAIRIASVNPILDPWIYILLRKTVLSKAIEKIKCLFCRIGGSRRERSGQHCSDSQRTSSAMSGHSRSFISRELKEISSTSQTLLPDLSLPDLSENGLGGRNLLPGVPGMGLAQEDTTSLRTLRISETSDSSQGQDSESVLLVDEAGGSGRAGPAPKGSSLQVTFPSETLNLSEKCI
test-name: Binding affinity to human EP4 receptor expressed in HEK293 cells
Format: cell-based
Entries and their pKi values follow.
Convention used: pKi is expressed as -log10 of the molar concentration.

Example entries begin here.
CCOc1c2c(c(OCC)c3ncccc13)CN(c1ccc(CS(=O)(=O)NC(=O)Cc3ccccc3OC(F)F)cc1C)C2=O    9.49
CCOc1c2c(c(OCC)c3ccccc13)C(=O)N(c1ccc(CS(=O)(=O)NC(=O)Cc3ccccc3)cc1)C2    9.51

[Q] Fill in: pKi of CCOc1c2c(c(OCC)c3ccccc13)C(=O)N(c1ccc(CS(=O)(=O)NC(=O)C3CCCc4ccccc43)cc1)C2 (stereo not drawn) is ___
[A] 9.00

[Q] Field request: pKi | item: CCOc1c2c(c(OCC)c3ncccc13)CN(c1ccc(CS(=O)(=O)NC(=O)Cc3ccccc3C(F)(F)F)cc1C)C2=O
[A] 9.37

[Q] Could you share which pKi value was measured for CCOc1c2c(c(OCC)c3ccccc13)C(=O)N(c1ccc(CS(=O)(=O)NC(=O)Cn3nccc3C)cc1)C2 ?
[A] 8.70

[Q] I'd like to know its pKi. The molecule in question is CCOc1c2c(c(OCC)c3ncccc13)CN(c1ccc(CS(=O)(=O)NC(=O)Cc3ccccc3F)cc1C)C2=O
[A] 9.32

[Q] May I ask what pKi has been recorded for CCOc1c2c(c(OCC)c3ccccc13)C(=O)N(c1ccc(CS(=O)(=O)NC(=O)Cc3cccc(OC)c3)cc1)C2 ?
[A] 8.62

[Q] Fill in: pKi of CCOc1c2c(c(OCC)c3ncccc13)CN(c1ccc(CS(=O)(=O)NC(=O)Cc3ccccc3OC)cc1C)C2=O is ___
[A] 9.13

---

test-name: Bioavailability in rat at 20 mg/kg, po or 5 mg/kg, iv
Assay type: ADME, organism-based
particulars: in vivo
recorded-endpoint: bioavailability

[Q] Form field: reported bioavailability of CCOc1c2c(c(OCC)c3ncccc13)CN(c1ccc(CS(=O)(=O)[N-]C(=O)Cc3ccccc3OC)cc1C)C2=O.[Na+]
[A] > 99%

---

test-name: Half life in dog at 2 mg/kg, iv
Assay type: ADME, organism-based, Canis lupus familiaris
Design: dose 2 mg/kg, route intravenous
particulars: in vivo
recorded-endpoint: half-life (min)
Answer with a number only, understood to be in min.

[Q] GET /values?readout=half-life&item= CCOc1c2c(c(OCC)c3ncccc13)CN(c1ccc(CS(=O)(=O)[N-]C(=O)Cc3ccccc3OC)cc1C)C2=O.[Na+]
[A] 246

---

These compounds were tested on Prostaglandin E2 receptor EP1 subtype (Homo sapiens, UniProt P34995); Ki is the recorded read-out.
Sequence (P34995 whole entry): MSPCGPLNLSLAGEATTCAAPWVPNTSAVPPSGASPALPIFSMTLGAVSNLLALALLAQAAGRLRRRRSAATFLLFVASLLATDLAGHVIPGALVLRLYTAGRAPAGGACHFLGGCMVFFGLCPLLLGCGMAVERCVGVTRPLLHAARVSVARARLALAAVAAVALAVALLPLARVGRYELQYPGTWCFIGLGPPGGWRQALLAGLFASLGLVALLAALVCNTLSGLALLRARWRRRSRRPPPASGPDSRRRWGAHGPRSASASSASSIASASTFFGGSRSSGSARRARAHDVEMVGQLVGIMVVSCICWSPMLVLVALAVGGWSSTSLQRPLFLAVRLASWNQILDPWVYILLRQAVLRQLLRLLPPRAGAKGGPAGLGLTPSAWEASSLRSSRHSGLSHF

CCOc1c2c(c(OCC)c3ncccc13)CN(c1ccc(CS(=O)(=O)NC(=O)Cc3ccccc3OC)cc1C)C2=O    > 7 µM

[Q] Report Ki for COc1cccc(OC)c1C1(C(=O)NS(=O)(=O)Cc2ccc(N3Cc4c(c(OCC(F)(F)F)c5cccnc5c4OCC(F)(F)F)C3=O)c(C)c2)CC1 tested on Prostaglandin E2 receptor EP1 subtype (Homo sapiens, UniProt P34995).
[A] > 9 µM

---

test-name: Half life in rhesus monkey at 2 mg/kg, iv
Format: ADME, organism-based, Macaca mulatta
Parameters: dose 2 mg/kg, route intravenous
particulars: in vivo
recorded-endpoint: half-life

[Q] Value lookup for half-life; key = COc1cccc(OC)c1C1(C(=O)[N-]S(=O)(=O)Cc2ccc(N3Cc4c(c(OCC(F)(F)F)c5cccnc5c4OCC(F)(F)F)C3=O)c(C)c2)CC1.[Na+]
[A] 3.8 h

---

test-name: Half life in mouse at 10 mg/kg, iv
Format: ADME, organism-based
Parameters: dose 10 mg/kg, route intravenous
particulars: in vivo
recorded-endpoint: half-life (h)
Only the number, expressed in h, is required.

[Q] Requested read-out: half-life. Entry: COc1cccc(OC)c1C1(C(=O)[N-]S(=O)(=O)Cc2ccc(N3Cc4c(c(OCC(F)(F)F)c5cccnc5c4OCC(F)(F)F)C3=O)c(C)c2)CC1.[Na+]
[A] 3.5

---

test-name: Metabolic stability in dog hepatocytes at 20 uM after 2 hrs
Format: ADME, cell-based, Canis lupus familiaris, Hepatocyte
particulars: read-out: Stability
recorded-endpoint: remaining at 2 h, 20 µM (%)
The answer is to be given in %; state only the numeric part.

[Q] Using the record for COc1cccc(OC)c1C1(C(=O)[N-]S(=O)(=O)Cc2ccc(N3Cc4c(c(OCC(F)(F)F)c5cccnc5c4OCC(F)(F)F)C3=O)c(C)c2)CC1.[Na+] , report its remaining at 2 h, 20 µM.
[A] 20

---

test-name: Metabolic stability in rat hepatocytes at 20 uM after 2 hrs
Assay type: ADME, cell-based, Hepatocyte
particulars: read-out: Stability
recorded-endpoint: remaining at 2 h, 20 µM (%)
Kindly provide the numeric value in % only, without the unit symbol.

[Q] Data request, read-out remaining at 2 h, 20 µM, for COc1cccc(OC)c1C1(C(=O)[N-]S(=O)(=O)Cc2ccc(N3Cc4c(c(OCC(F)(F)F)c5cccnc5c4OCC(F)(F)F)C3=O)c(C)c2)CC1.[Na+]
[A] 6

---

test-name: Clearance in dog at 10 mg/kg, po or 2 mg/kg, iv
Type: ADME, organism-based, Canis lupus familiaris
particulars: in vivo
recorded-endpoint: clearance (mL/min/kg)
State just the number; it will be interpreted in mL/min/kg.

[Q] Endpoint output: clearance of CCOc1c2c(c(OCC)c3ncccc13)CN(c1ccc(CS(=O)(=O)[N-]C(=O)Cc3ccccc3OC)cc1C)C2=O.[Na+] . Value?
[A] 0.4

---

assay-system: UniProt:P35408
test-name: Binding affinity to human EP4 receptor expressed in HEK293 cells in presence of 10% human serum
Type: cell-based
As shown below, each of these compounds has a reported pKi value.
Bear in mind: pKi is minus log10 of a mol/L concentration; give just that figure.

Observe how each entry below is paired with its result.
COc1ccccc1CC(=O)NS(=O)(=O)Cc1ccc(N2Cc3c(c(OCC(F)(F)F)c4cccnc4c3OCC(F)(F)F)C2=O)c(C)c1    7.77
CCOc1c2c(c(OCC)c3ncccc13)CN(c1ccc(CS(=O)(=O)NC(=O)Cc3c(Cl)cccc3Cl)cc1C)C2=O    8.32
COc1cccc(OC)c1C1(C(=O)NS(=O)(=O)Cc2ccc(N3Cc4c(c(OCC(F)(F)F)c5cccnc5c4OCC(F)(F)F)C3=O)c(C)c2)CC1    8.80
CCOc1c2c(c(OCC)c3ccccc13)C(=O)N(c1ccc(CS(=O)(=O)NC(=O)C3CCCc4ccccc43)cc1)C2 (stereo not given)    6.03
CCOc1c2c(c(OCC)c3ncccc13)CN(c1ccc(CS(=O)(=O)NC(=O)C3(c4ccccc4OC)CC3)cc1C)C2=O    8.38
CCOc1c2c(c(OCC)c3ccccc13)C(=O)N(c1ccc(CS(=O)(=O)NC(=O)Cc3cccc4ccccc34)cc1)C2    8.32
CCOc1c2c(c(OCC)c3ccccc13)C(=O)N(c1ccc(CS(=O)(=O)NC(=O)Cn3nccc3C)cc1)C2    6.22
CCOc1c2c(c(OCC)c3ccccc13)C(=O)N(c1ccc(CS(=O)(=O)NC(=O)COc3ccccc3)cc1)C2    5.92

[Q] For the compound COc1ccccc1C1(C(=O)NS(=O)(=O)Cc2ccc(N3Cc4c(c(OCC(F)(F)F)c5cccnc5c4OCC(F)(F)F)C3=O)c(C)c2)CC1 , what pKi is on record?
[A] 7.92

[Q] Look up pKi: CCOc1c2c(c(OCC)c3ncccc13)CN(c1ccc(CS(=O)(=O)NC(=O)Cc3ccccc3F)cc1C)C2=O
[A] 7.47

[Q] # pKi lookup, item CCOc1ccccc1CC(=O)NS(=O)(=O)Cc1ccc(N2Cc3c(c(OCC)c4cccnc4c3OCC)C2=O)c(C)c1
[A] 8.05

[Q] # pKi lookup, item CCOc1c2c(c(OCC)c3ccccc13)C(=O)N(c1ccc(CS(=O)(=O)NC(=O)Cc3c(C)cc(C)cc3C)cc1)C2
[A] 6.42
